# Experimental System: factor VIII target (Homo sapiens, UniProt P00451)
# Construct: amino acids 1-743 and 1638 through 2332 of human factor VIII; purchased Genetics Institute, Inc. (Cambridge, Mass.)
# Sequence (P00451 20-762): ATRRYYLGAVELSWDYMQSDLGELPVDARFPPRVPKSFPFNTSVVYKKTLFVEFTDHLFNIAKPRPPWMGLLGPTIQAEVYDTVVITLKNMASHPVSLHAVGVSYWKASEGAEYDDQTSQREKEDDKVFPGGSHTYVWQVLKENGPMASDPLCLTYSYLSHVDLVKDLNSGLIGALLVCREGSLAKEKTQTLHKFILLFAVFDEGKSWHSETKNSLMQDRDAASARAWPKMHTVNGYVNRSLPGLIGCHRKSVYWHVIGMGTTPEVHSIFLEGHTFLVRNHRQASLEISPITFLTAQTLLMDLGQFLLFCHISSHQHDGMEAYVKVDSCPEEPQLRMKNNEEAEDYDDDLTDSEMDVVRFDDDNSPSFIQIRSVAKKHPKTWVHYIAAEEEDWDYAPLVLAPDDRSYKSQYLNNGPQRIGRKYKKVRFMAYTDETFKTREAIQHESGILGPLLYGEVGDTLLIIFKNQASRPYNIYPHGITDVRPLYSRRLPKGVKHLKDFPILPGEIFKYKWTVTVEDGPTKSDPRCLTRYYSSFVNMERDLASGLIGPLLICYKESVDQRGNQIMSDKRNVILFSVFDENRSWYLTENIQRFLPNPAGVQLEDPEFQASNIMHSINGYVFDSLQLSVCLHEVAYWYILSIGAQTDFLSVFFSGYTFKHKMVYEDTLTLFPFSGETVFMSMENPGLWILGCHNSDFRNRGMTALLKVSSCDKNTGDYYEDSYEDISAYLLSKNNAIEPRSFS
# Sequence (P00451 1657-2351): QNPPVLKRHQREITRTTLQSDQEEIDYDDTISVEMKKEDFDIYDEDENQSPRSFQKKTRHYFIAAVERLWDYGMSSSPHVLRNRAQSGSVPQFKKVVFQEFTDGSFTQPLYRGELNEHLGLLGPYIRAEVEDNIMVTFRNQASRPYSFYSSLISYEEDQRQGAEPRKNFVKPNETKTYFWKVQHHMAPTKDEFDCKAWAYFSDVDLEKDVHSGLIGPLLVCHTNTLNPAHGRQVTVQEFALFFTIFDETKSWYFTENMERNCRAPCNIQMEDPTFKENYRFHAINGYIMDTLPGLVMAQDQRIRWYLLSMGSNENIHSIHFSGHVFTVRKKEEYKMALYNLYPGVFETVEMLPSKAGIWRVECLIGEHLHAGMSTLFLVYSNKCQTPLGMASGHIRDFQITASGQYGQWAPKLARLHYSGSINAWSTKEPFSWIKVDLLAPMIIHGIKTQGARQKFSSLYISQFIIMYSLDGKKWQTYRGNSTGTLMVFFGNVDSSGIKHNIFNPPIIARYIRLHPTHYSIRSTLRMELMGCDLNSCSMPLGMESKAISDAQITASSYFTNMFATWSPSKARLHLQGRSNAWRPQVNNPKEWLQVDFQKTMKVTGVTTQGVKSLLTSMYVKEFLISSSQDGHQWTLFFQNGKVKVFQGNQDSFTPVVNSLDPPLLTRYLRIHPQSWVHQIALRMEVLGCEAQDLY
# Assay Method Text: Phage ELISA of high scoring isolates from rounds 2 and 3, with versus without target
# Type: binding
# Settings: phage isolates from rounds 2 and 3
No end group written: not given here.
Cut-off 8 on R, ratio of the ELISA score with target present to the ELISA score without target: below means YES, at or above means NO.

[
  {
    "Record Sequence": "HLCGAWFRPCDA (cysteine pairing not given here) [TN8 isolate 02]",
    "Experimental System": "factor VIII target (Homo sapiens, UniProt P00451)",
    "Cat": "YES"
  },
  {
    "Record Sequence": "RLCSWVSPCSA (cysteine pairing not given here) [TN7 isolate C5/G10]",
    "Experimental System": "factor VIII target (Homo sapiens, UniProt P00451)",
    "Cat": "NO"
  },
  {
    "Record Sequence": "HPCGAWLRPCYN (cysteine pairing not given here) [TN8 isolate 08]",
    "Experimental System": "factor VIII target (Homo sapiens, UniProt P00451)",
    "Cat": "NO"
  },
  {
    "Record Sequence": "HRCGSWLHPCLA (cysteine pairing not given here) [TN8 isolate 11/G10]",
    "Experimental System": "factor VIII target (Homo sapiens, UniProt P00451)",
    "Cat": "YES"
  },
  {
    "Record Sequence": "FCWVFPFHHCF (cysteine pairing not given here) [TN9 isolate 06]",
    "Experimental System": "factor VIII target (Homo sapiens, UniProt P00451)",
    "Cat": "YES"
  },
  {
    "Record Sequence": "FCWVFPFQHCA (cysteine pairing not given here) [TN9 isolate 09]",
    "Experimental System": "factor VIII target (Homo sapiens, UniProt P00451)",
    "Cat": "NO"
  }
]
